Parameter pIC50: see the listing below.
Target: Dipeptidyl peptidase 4 (Homo sapiens, UniProt P27487)
Sequence (P27487 whole entry): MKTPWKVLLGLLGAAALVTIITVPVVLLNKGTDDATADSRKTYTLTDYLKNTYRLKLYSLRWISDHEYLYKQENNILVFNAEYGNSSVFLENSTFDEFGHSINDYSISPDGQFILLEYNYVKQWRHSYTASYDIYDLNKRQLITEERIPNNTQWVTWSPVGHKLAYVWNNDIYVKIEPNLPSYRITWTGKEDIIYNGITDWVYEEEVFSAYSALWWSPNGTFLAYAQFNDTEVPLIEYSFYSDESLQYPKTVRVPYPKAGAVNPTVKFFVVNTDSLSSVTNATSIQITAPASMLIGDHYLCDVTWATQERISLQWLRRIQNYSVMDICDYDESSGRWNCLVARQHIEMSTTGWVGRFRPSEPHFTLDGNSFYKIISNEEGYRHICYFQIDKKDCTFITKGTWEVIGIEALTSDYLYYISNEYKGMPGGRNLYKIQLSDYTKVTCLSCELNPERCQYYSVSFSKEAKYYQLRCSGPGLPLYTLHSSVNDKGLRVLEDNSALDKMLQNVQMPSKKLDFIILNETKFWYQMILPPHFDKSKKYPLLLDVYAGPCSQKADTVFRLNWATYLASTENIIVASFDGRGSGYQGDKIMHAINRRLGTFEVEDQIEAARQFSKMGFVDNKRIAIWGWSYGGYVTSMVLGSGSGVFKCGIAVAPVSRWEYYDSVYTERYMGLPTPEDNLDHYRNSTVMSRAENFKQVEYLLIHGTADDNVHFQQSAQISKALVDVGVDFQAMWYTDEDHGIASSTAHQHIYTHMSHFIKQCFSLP
Experiment: Inhibition of human recombinant DPP4 by fluorescence assay
pIC50: −log10 of the molar value.
PARAMETER_MEASURED: pIC50

structure_notation=N#C[C@@H]1CS[C@H]2C[C@@H](NC3CCCC3)C(=O)N12 observed_result="< 4.80"
structure_notation=N#C[C@@H]1CS[C@H]2CC[C@H](N)C(=O)N12 observed_result="< 5.80"
structure_notation=N#C[C@@H]1CS[C@H]2C[C@@H](NCCc3ccccc3)C(=O)N12 observed_result="< 4.80"
structure_notation=N#C[C@@H]1CS[C@H]2CC[C@@H](N)C(=O)N12 observed_result="< 5.80"
